- experimental.target: PDGFRA (human)
- experimental.protocol: radiometric filter-binding kinase assay
- measurement.context: compound 1.0 µM
Could you mark each record MET if its residual activity falls strictly under 90%, and NOT MET if it equals or exceeds it?

The examples below pair each entry with its known result.
INSERT INTO results (compound, answer_label) VALUES
  ('CC1=C(CO)C(=O)O[C@@H]([C@@H](C)[C@H]2CC[C@H]3[C@@H]4C[C@H]5O[C@]56[C@@H](O)C=CC(=O)[C@]6(C)C4CC[C@]23C)C1 (stereo partly drawn)', 'NOT MET'),
  ('Cc1ccc(-c2ccc3c(ccc4sc5c(c43)NC[C@@H](C)NC5=O)n2)cn1', 'NOT MET'),
  ('CCn1c(-c2nonc2N)nc2cncc(CNC3CCNCC3)c21', 'NOT MET');

Check if residual activity falls below 90% for `COc1cc(C(=O)N2CCOCC2)c(F)cc1Nc1ncc(C(F)(F)F)c(NC2CC2)n1` .
MET

Check if residual activity falls below 90% for `NCC(=O)Nc1ccc(-n2nc(C(F)(F)F)cc2-c2ccc3c(ccc4ccccc43)c2)cc1` .
MET

Check if residual activity falls below 90% for Nc1cccc2c1CN(C1CCC(=O)NC1=O)C2=O (stereo not drawn) .
MET

Check if residual activity falls below 90% for CNC(=O)C1[C@H]2O[C@@](C)([C@@H]1N)n1c3ccccc3c3c4c(c5c6ccccc6n2c5c31)C(=O)NC4 (stereo partly drawn) .
MET
